# System Under Test: HIV-1 IN multimerization (Human immunodeficiency virus type 1 group M subtype B, UniProt P12497)
# Construct: IN is a 32 kDa multimeric enzyme comprising three domains
# Assay Method Text: HTRF-based assay of higher-order, aberrant IN multimerization
# Test Conditions: dash = no induction of higher-order, read-out: MI50 IN multimerization
pEC50: −log10 of the molar value.

| Compound | pEC50 |
| --- | --- |
| CCCC(C(=O)O)c1c(C)nc2ccc(Cl)cc2c1-c1ccccc1 (stereo not shown) [LEDGIN-6, reference compound] | 5.00 |

----------
# System Under Test: HIV-1 IN K173A mutant (Human immunodeficiency virus type 1 group M subtype B, UniProt P12497, K1320A)
# Construct: IN is a 32 kDa multimeric enzyme comprising three domains; His
# Assay Method Text: HTRF IN LEDGF/p75-dependent assay on K173A mutant, with or without sucrose
pIC50: −log10 of the molar value.

| Compound Structure | pIC50 |
| --- | --- |
| Cc1sc2nc(-c3cc(O)c(O)cc3O)[nH]c(=O)c2c1C | 5.19 |
| O=c1[nH]c(-c2cc(O)c(O)c(O)c2)nc2sc3c(c12)CCCCC3 | 5.48 |

----------
# System Under Test: HIV-1 IN/LEDGF/p75 binding (Human immunodeficiency virus type 1 group M subtype B)
# Construct: IN is a 32 kDa multimeric enzyme comprising three domains
# Assay Method Text: HTRF-based IN-LEDGF/p75 binding assay
# Test Conditions: mean ± SE, three experiments
# Procedure: The IN-LEDGF/p75 binding was evaluated using a FRET method, in which His-IN was pre-incubated with test compounds in a mix buffer previously described, for 30 min at room temperature. […]
Some molecules, each annotated with its measured IC50.

| Molecule | IC50 |
| --- | --- |
| O=c1[nH]c(-c2cc(O)c(O)cc2O)nc2sc3c(c12)CCCCC3 | > 100 µM |
| Cc1sc2nc(-c3cc(O)c(O)cc3O)[nH]c(=O)c2c1C | 75 µM |
| O=c1[nH]c(-c2cc(O)c(O)cc2O)nc2sc3c(c12)CCC3 | 24.7 µM |
| O=c1[nH]c(-c2cc(O)c(O)c(O)c2)nc2sc3c(c12)CCCCC3 | 6.16 µM |
| CCCC(C(=O)O)c1c(C)nc2ccc(Cl)cc2c1-c1ccccc1 (centres unmarked) [LEDGIN-6, reference compound] | 10 µM |

----------
# System Under Test: HIV-1 IN in the absence of LEDGF/p75 (Human immunodeficiency virus type 1 group M subtype B)
# Construct: His
# Assay Method Text: HTRF HIV-1 IN LEDGF/p75-independent assay
# Test Conditions: mean ± SE, three experiments, read-out: IC50 IN LEDGF/p75-independent integration
Some molecules, each annotated with its measured log10 IC50.
Measured Attribute: log10 IC50 (log10 of the value in nM)

| Molecule | log10 IC50 |
| --- | --- |
| Cc1sc2nc(-c3cc(O)c(O)c(O)c3)[nH]c(=O)c2c1C [Compound 5] | 3.73 |
| O=c1[nH]c(-c2cc(O)c(O)c(O)c2)nc2sc3c(c12)CCC3 [Compound 13] | 3.05 |
| O=c1[nH]c(-c2cc(O)c(O)cc2O)nc2sc3c(c12)CCC3 [Compound 12] | 2.93 |
| Cc1sc2nc(-c3cc(O)c(O)cc3O)[nH]c(=O)c2c1C [Compound 6] | 2.88 |
| CCCC(C(=O)O)c1c(C)nc2ccc(Cl)cc2c1-c1ccccc1 (stereo not shown) [LEDGIN-6, reference compound] | 4.00 |
| O=c1[nH]c(-c2cc(O)c(O)c(O)c2)nc2sc3c(c12)CCCCC3 [Compound 10] | 3.56 |
| O=c1[nH]c(-c2cc(O)c(O)cc2O)nc2sc3c(c12)CCCCC3 [Compound 9] | 3.00 |

----------
# System Under Test: HIV-1 IN H185A mutant (Human immunodeficiency virus type 1 group M subtype B, UniProt P12497, F1332A)
# Construct: IN is a 32 kDa multimeric enzyme comprising three domains; His; made in house; host or cells: Escherichia coli BL21 (DE3)
# Assay Method Text: HTRF IN LEDGF/p75-dependent assay on H185A mutant, with or without sucrose
# Type: biochemical
# Test Conditions: HIV-1 IN H185A mutant IC50 with sucrose, LEDGF/p75-dependent activity, in the presence of sucrose
Some molecules, each annotated with its measured IC50.
Measured Attribute: IC50

| Compound Structure | Result |
| --- | --- |
| Cc1sc2nc(-c3cc(O)c(O)cc3O)[nH]c(=O)c2c1C | 480 nM |
| O=c1[nH]c(-c2cc(O)c(O)c(O)c2)nc2sc3c(c12)CCCCC3 | 610 nM |

----------
Some molecules, each annotated with its measured pIC50.
# System Under Test: HIV-1 IN-IN subunit exchange (Human immunodeficiency virus type 1 group M subtype B)
# Construct: IN is a 32 kDa multimeric enzyme comprising three domains
# Assay Method Text: HTRF-based IN-IN subunit exchange assay
# Test Conditions: mean ± SE, three experiments
pIC50: −log10 of the molar value.
Measured Attribute: pIC50

| Molecule | Measured Attribute | Censor Symbol | Result |
| --- | --- | --- | --- |
| O=c1[nH]c(-c2cc(O)c(O)cc2O)nc2sc3c(c12)CCCCC3 | pIC50 | = | 5.20 |
| CCCC(C(=O)O)c1c(C)nc2ccc(Cl)cc2c1-c1ccccc1 (centres unmarked) [LEDGIN-6, reference compound] | pIC50 | < | 4.00 |
| Cc1sc2nc(-c3cc(O)c(O)cc3O)[nH]c(=O)c2c1C | pIC50 | = | 5.26 |
| O=c1[nH]c(-c2cc(O)c(O)c(O)c2)nc2sc3c(c12)CCCCC3 | pIC50 | = | 5.69 |
| O=c1[nH]c(-c2cc(O)c(O)cc2O)nc2sc3c(c12)CCC3 | pIC50 | = | 4.76 |

Taken from paper PMC12735844.
